# experimental-target: T1, ZFP SBS#1011 (synthetic)
# T1 chain: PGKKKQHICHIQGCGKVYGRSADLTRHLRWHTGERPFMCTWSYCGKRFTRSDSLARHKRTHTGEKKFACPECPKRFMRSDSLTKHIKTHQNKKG
# test-summary: EMSA
# applied-conditions: tags: MBP fusion
value-kind: Kd (nM)

TTGGTGGCG (dsDNA) DNA 1: TTGGTGGCG DNA 2: CGCCACCAA	0.03

Every entry's value here was drawn from patent US20030068675.
